- experimental-target: Pantothenate synthetase (Mycobacterium tuberculosis (strain ATCC 25618 / H37Rv))
- assay-text: Coupled enzyme confirmation of inhibitors against recombinant Mtb PanC (AID 375);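 also: 0% = full reaction with vehicle and 100% = no enzyme background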
- condition-set: coupled enzyme assay; at 10 µM, stronger effect = higher value
Please use condition met whenever inhibition is not below 2%, and condition not met whenever it is.

molecule	discrete-label
CCOC(=O)c1cnc(-n2cc(C)cn2)nc1Nc1ccccc1OC	condition not met
Cc1onc(-c2ccccc2)c1C(=O)N[C@@H]1C(=O)N2[C@@H]1SC(C)(C)[C@@H]2C(=O)O	condition not met
CCCCNC(=O)Cn1c(=O)n(C)c2ccccc21	condition not met
COCCCNC(=O)CC(NS(=O)(=O)c1ccc(Cl)cc1)c1ccco1 (stereo unspecified)	condition not met
CC(C)(C)n1nnnc1C(c1ccccc1)N1CCc2ccccc2C1 (stereo unspecified)	condition not met
O=C(CSc1nc2cc(Cl)ccc2s1)N1CCN(C(=O)c2ccco2)CC1	condition met
CCc1cccc(NC(=O)CN(C)S(=O)(=O)c2cccc3nsnc23)c1	condition met
COCCN(CCOC)C(=O)CCn1c(=O)oc2ccccc21	condition not met
C[N+](C)(C)CCOP(=O)([O-])OC[C@H](O)CO	condition not met
O=C(Oc1ccc(Cl)cc1N1C(=O)CCC1=O)c1ccco1	condition met
O=c1cc(CSc2nnc(COc3ccc(Cl)cc3)o2)c2ccccc2[nH]1	condition met
CCOc1ccccc1-n1c(SCC(=O)NC2CCCC2)nnc1-c1ccoc1C	condition not met

----------
- assay-text: MRP1 drug-resistance reversers in H69AR cells – cell-based, doxorubicin co-treatment, pilot screen (AID 601)
- condition-set: H69AR cells + 2 uM doxorubicin, CellTiter-Glo, 72 h; measured here: viability with 2 uM doxorubicin; at 10 µM; stronger effect = lower value

molecule	viability / %
Cc1ccc(-n2c(O)c(C=NCCN3CCOCC3)c(=O)[nH]c2=O)cc1	93.5
COc1ccccc1OCCCn1cc(C(=O)c2ccco2)c2ccccc21	82.7
CN1CCC(OC(=O)C2c3ccccc3Oc3ccccc32)CC1	85.5
Cc1ccc2c(c1)[C@@H]1CN(C)CC[C@@H]1N2C(=O)Nc1cccc(C(F)(F)F)c1	78.1
Cc1cc(NC(=O)COC(=O)c2c(C)nn(Cc3ccccc3)c2Cl)no1	86
CC(=O)[C@H]1CC[C@H]2[C@@H]3CC[C@H]4C[C@H](O)CC[C@]4(C)[C@H]3C(=O)C[C@]12C	92
C[C@@]1(CO)[C@H](O)CC[C@@]2(C)[C@H]1CC[C@H]1C[C@@H]3C[C@@]12CC[C@]3(O)CO	109
O=C(Cc1ccccc1)OC(COCc1ccccc1)CN1CCOCC1 (stereo not given)	89.4
CCC(=NCC1CCCO1)c1c(O)n(Cc2ccccc2)c(=O)[nH]c1=O (stereo not given)	86.7
CC(C)[C@@]1(NC(=O)[C@@H]2C[C@@H]3c4cccc5[nH]cc(c45)C[C@H]3N(C)C2)O[C@@]2(O)[C@@H]3CCCN3C(=O)[C@H](Cc3ccccc3)N2C1=O	77.3
Cc1ccnc(-n2c(-c3ccco3)nc3ccccc3c2=O)c1	89.6
CCOC(=O)c1cccc([P+](=O)O)c1	97.1
c1ccc(C2CC3CC(c4ccco4)N2O3)cc1 (stereo not given)	90.9
CC12CCCCC1=[N+]([O-])CN2O (stereo not given)	89.4
CCOC(=O)C(O)(c1ccc(N(CC)C(=O)OC)cc1)C(F)(F)F (stereo not given)	88.3
Cc1cccc(-n2c(-c3ccco3)nc3ccccc3c2=O)n1	90
COc1ccccc1N(CC(=O)NC1CCCCC1)C(=O)c1cnn(C(C)C)c1	97.2
O=C(c1ccc2nc3ccc(Cl)cc3c(=O)n2c1)N1CCC2(CC1)OCCO2	95.4
Cc1cc(C)c(C(=O)CN2CCOCC2)c(C)c1	80.7
Cc1cc(N2C(=O)C3CCCN3C2c2cccc(Cl)c2)no1 (stereo not given)	88
c1ccc2c3c([nH]c2c1)CNCC3	80
O=C1C2CCCN2C(c2ccc(Cl)c(Cl)c2)N1c1ccccn1 (stereo not given)	86
Oc1ccc(C2NCc3ccccc3-n3cccc32)cc1Cl (stereo not given)	82.7
CCOc1c(P(=S)(N(C)C)N(C)C)c(C)nn1-c1ccccc1	84.1
COc1ccc(C(=O)C(C)(C)NO)cc1	88.8
CCn1nc(-c2ccccc2)nc2c(=O)n(C)c(=O)nc1-2	0.875
c1ccc2c(c1)[nH]c1cnccc12	80.7
CC(C)OCCCNC(=O)c1c(N)n(Cc2cccs2)c2nc3ccccc3nc12	79.8
CCOc1ccc(-n2c(O)c(C=NCCN(CC)CC)c(=O)[nH]c2=O)cc1	103
CCCC(C)C1C(C#N)=C(N)Oc2c1c(=O)oc1ccccc21 (stereo not given)	79.2
